Some molecules, each annotated with its measured activity at 125 µM.
- System: C. difficile R20291 spores
- protocol_text: C. difficile spore germination assay (optical density, OD580)
- condition_notes: Clostridioides difficile, R20291SPORES, read-out: % Germination, Table 2; compound 125 μM, 6 mM taurocholate, 12 mM glycine, ± standard deviation
measured_quantity: activity at 125 µM (%)

- COc1ccc2c(c1)N(C(=O)CC[C@@H](C)[C@H]1CC[C@H]3[C@@H]4[C@H](O)C[C@@H]5C[C@H](O)CC[C@]5(C)[C@H]4C[C@H](O)[C@]13C)CC2: 100
- C[C@H](CCC(=O)N1CCc2cc(Br)ccc2C1)[C@H]1CC[C@H]2[C@@H]3[C@H](O)C[C@@H]4C[C@H](O)CC[C@]4(C)[C@H]3C[C@H](O)[C@]12C: 100
- C[C@H](CCC(=O)N1CCc2cc(Cl)ccc21)[C@H]1CC[C@H]2[C@@H]3[C@H](O)C[C@@H]4C[C@H](O)CC[C@]4(C)[C@H]3C[C@H](O)[C@]12C: 70
- COc1ccc2c(c1)CCN(C(=O)CC[C@@H](C)[C@H]1CC[C@H]3[C@@H]4[C@H](O)C[C@@H]5C[C@H](O)CC[C@]5(C)[C@H]4C[C@H](O)[C@]13C)C2: 100
- C[C@H](CCC(=O)N1CCCc2ccccc21)[C@H]1CC[C@H]2[C@@H]3[C@H](O)C[C@@H]4C[C@H](O)CC[C@]4(C)[C@H]3C[C@H](O)[C@]12C: 17
